B1: Lysozyme C, P61626 (parent)
chain: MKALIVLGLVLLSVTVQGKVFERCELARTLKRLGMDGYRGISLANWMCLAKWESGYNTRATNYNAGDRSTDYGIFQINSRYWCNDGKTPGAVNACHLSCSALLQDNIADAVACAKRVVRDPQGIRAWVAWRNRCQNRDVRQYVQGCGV

- Variants of: B1
- test-parameters: Homo sapiens; pH 2.7; 49.2 °C; Thermal; DSC; glycine 0.05 M; reversible: yes; structure 1LZ1; whole UniProt chain shown

{"entry-sequence": "MKALIVLGLVLLSVTVQGKVFERCELARTLKRLGMDGYRGISLANWMCLAKWESGYNTRATNYNAGDRSTDYGIFQINSRYWCNDGKTPGAVNACHLSCSALLQDNIADAVACAKRVVRDPQGIRAWVAWRNRCQNRDARQYVQGCGV [V139A]", "unit": "kcal/mol/K", "heat capacity change of unfolding": 1.37}
{"entry-sequence": "MKALIVLGLVLLSVTVQGKVFERCELARTLKRLGMDGYRGISLANWMCLAKWESGYNTRATNYNAGDRSTDYGIFQINSRYWCNDGKTPGAANACHLSCSALLQDNIADAVACAKRVVRDPQGIRAWVAWRNRCQNRDVRQYVQGCGV [V92A]", "unit": "kcal/mol/K", "heat capacity change of unfolding": 1.53}
{"entry-sequence": "MKALIVLGLVLLSVTVQGKVFERCELARTLKRLGMDGYRGISLANWMCLAKWESGYNTRATNYNAGDRSTDYGIFQVNSRYWCNDGKTPGAVNACHLSCSALLQDNIADAVACAKRVVRDPQGIRAWVAWRNRCQNRDVRQYVQGCGV [I77V]", "unit": "kcal/mol/K", "heat capacity change of unfolding": 1.67}
{"entry-sequence": "MKALIVLGLVLLSVTVQGKAFERCELARTLKRLGMDGYRGISLANWMCLAKWESGYNTRATNYNAGDRSTDYGIFQINSRYWCNDGKTPGAVNACHLSCSALLQDNIADAVACAKRVVRDPQGIRAWVAWRNRCQNRDVRQYVQGCGV [V20A]", "unit": "kcal/mol/K", "heat capacity change of unfolding": 1.44}
{"entry-sequence": "MKALIVLGLVLLSVTVQGKVFERCELARTLKRLGMDGYRGISLANWMCLAKWESGYNTRATNYNAGDRSTDYGIFQINSRYWCNDGKTPGAVNACHLSCSALLQDNIADAAACAKRVVRDPQGIRAWVAWRNRCQNRDVRQYVQGCGV [V111A]", "unit": "kcal/mol/K", "heat capacity change of unfolding": 1.53}
{"entry-sequence": "MKALIVLGLVLLSVTVQGKVFERCELARTLKRLGMDGYRGISLANWMCLAKWESGYNTRATNYNAGDRSTDYGIFQINSRYWCNDGKTPGAVNACHLSCSALLQDNIADAVACAKRVVRDPQGIRAWVAWRNRCQNRDVRQYAQGCGV [V143A]", "unit": "kcal/mol/K", "heat capacity change of unfolding": 1.56}
{"entry-sequence": "MKALIVLGLVLLSVTVQGKVFERCELARTLKRLGMDGYRGISLANWMCLAKWESGYNTRATNYNAGDRSTDYGIFQINSRYWCNDGKTPGAVNACHLSCSALLQDNVADAVACAKRVVRDPQGIRAWVAWRNRCQNRDVRQYVQGCGV [I107V]", "unit": "kcal/mol/K", "heat capacity change of unfolding": 1.84}
{"entry-sequence": "MKALIVLGLVLLSVTVQGKVFERCELARTLKRLGMDGYRGISLANWMCLAKWESGYNTRATNYNAGDRSTDYGVFQINSRYWCNDGKTPGAVNACHLSCSALLQDNIADAVACAKRVVRDPQGIRAWVAWRNRCQNRDVRQYVQGCGV [I74V]", "unit": "kcal/mol/K", "heat capacity change of unfolding": 1.29}
{"entry-sequence": "MKALIVLGLVLLSVTVQGKVFERCELARTLKRLGMDGYRGISLANWMCLAKWESGYNTRATNYNAGDRSTDYGIFQINSRYWCNDGKTPGAVNACHLSCSALLQDNIADAVACAKRVVRDPQGIRAWVAWRNRCQNRDVRQYVQGCGA [V148A]", "unit": "kcal/mol/K", "heat capacity change of unfolding": 1.87}
{"entry-sequence": "MKALIVLGLVLLSVTVQGKVFERCELARTLKRLGMDGYRGISLANWMCLAKWESGYNTRATNYNAGDRSTDYGIFQINSRYWCNDGKTPGAVNACHLSCSALLQDNIADAVACAKRVARDPQGIRAWVAWRNRCQNRDVRQYVQGCGV [V118A]", "unit": "kcal/mol/K", "heat capacity change of unfolding": 1.84}
{"entry-sequence": "MKALIVLGLVLLSVTVQGKVFERCELARTLKRLGMDGYRGVSLANWMCLAKWESGYNTRATNYNAGDRSTDYGIFQINSRYWCNDGKTPGAVNACHLSCSALLQDNIADAVACAKRVVRDPQGIRAWVAWRNRCQNRDVRQYVQGCGV [I41V]", "unit": "kcal/mol/K", "heat capacity change of unfolding": 1.82}
{"entry-sequence": "MKALIVLGLVLLSVTVQGKVFERCELARTLKRLGMDGYRGISLANWMCLAKWESGYNTRATNYNAGDRSTDYGIFQINSRYWCNDGKTPGAVNACHLSCSALLQDNIADAVACAKRVVRDPQGVRAWVAWRNRCQNRDVRQYVQGCGV [I124V]", "unit": "kcal/mol/K", "heat capacity change of unfolding": 1.72}
{"entry-sequence": "MKALIVLGLVLLSVTVQGKVFERCELARTLKRLGMDGYRGISLANWMCLAKWESGYNTRATNYNAGDRSTDYGIFQINSRYWCNDGKTPGAVNACHLSCSALLQDNIADAVACAKRVVRDPQGIRAWAAWRNRCQNRDVRQYVQGCGV [V128A]", "unit": "kcal/mol/K", "heat capacity change of unfolding": 1.51}
